Target: T1, IL-5RaECD (the extracellular domain (ECD) of the human IL-5 receptor a chain) (human, UniProt Q01344 21-342, extensively glycosylated)
T1 construct: extracellular domain; also called IL-5RαECD; soluble IL-5Ra
T1 sequence (Q01344 21-342, looked up): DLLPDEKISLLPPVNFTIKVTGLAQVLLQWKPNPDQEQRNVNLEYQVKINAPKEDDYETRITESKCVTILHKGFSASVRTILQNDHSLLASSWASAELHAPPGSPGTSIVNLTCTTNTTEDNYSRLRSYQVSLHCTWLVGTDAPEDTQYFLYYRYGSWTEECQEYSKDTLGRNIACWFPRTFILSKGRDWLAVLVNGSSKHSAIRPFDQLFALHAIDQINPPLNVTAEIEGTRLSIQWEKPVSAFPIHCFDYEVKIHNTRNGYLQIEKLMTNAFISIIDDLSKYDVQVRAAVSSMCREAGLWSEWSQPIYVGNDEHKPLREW
Assay: scintillation proximity competition assay, 20 pM [125I] IL-5, soluble IL-5Ra on beads; dimer of the printed monomer
QUANTITY_KIND: SPA pIC50

BINDER: H-GYVCVEFARCPTCG-NH2 (disulfide (positions not given here); also: dimer, intramolecular and intermolecular disulfide linkages, places not given here) [dimer of (H)-GYVCVEFARCPTCG-(NH2)]
READING: 6.1 negative log of the molar IC50

Now look at this one.
Q. For H-EGYVCVEWARCPTCR-NH2 (disulfide (positions not given here); also: dimer, intramolecular and intermolecular disulfide linkages, places not given here) [dimer of (H)-EGYVCVEWARCPTCR-(NH2)] , what is its reported SPA pIC50?
A. 8.1 negative log of the molar IC50
